Target: T1, human RXFP1 (human, UniProt Q9HBX9 1-757)
T1 sequence (looked up): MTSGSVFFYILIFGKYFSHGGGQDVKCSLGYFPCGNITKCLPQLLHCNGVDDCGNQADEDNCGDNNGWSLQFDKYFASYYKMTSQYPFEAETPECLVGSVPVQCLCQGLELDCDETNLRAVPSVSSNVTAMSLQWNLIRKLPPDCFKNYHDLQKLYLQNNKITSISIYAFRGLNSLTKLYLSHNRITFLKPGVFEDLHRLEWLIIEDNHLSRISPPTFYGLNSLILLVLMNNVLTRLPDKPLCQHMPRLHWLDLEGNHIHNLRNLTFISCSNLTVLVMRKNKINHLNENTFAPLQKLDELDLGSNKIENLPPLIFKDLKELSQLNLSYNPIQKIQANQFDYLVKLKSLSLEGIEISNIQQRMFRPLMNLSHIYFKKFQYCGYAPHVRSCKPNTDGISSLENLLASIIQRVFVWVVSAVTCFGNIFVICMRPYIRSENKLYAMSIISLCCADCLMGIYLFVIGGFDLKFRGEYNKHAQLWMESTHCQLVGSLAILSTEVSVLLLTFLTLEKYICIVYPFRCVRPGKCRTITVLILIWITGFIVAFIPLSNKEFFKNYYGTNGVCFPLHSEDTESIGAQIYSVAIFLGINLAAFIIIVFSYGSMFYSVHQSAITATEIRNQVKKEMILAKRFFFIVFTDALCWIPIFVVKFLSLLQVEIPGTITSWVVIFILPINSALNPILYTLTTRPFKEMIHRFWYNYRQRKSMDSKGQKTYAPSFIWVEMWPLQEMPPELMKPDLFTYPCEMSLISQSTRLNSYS
Experiment: cell-based or functional assay
READOUT LABEL: Transient HEK293 hRXFP1 cAMP EC50 (pM)
Quick reminder: number only, in pM, skip the unit.

[Q] Requested read-out: Transient HEK293 hRXFP1 cAMP EC50. Entry: SEQ ID NO: 496 (Fc fusion) DKTHTCPPCPAPEAAGGPSVFLFPPKPKDTLMISRTPEVTCVVVDVSHEDPEVKFNWYVDGVEVHNAKTKPREEQYNSTYRVVSVLTVLHQDWLNGKEYKCKVSNKALAAPIEKTISKAKGQPREPQVYTLPPSRDELTKNQVSLTCLVKGFYPSDIAVEWESNGQPENNYKTTPPVLDSDGSFFLYSKLTVDKSRWQQGNVFSCSVLHEALHSHYTQKSLSLSPGKGGSDSWKEEVIKLCGRELVRAQIAICGKSTASDAAGANANAGARQLYSALANKCCHVGCTKRSLARFC
[A] 190
